- SUBJECT_OF_TEST: hNK1R (Homo sapiens, UniProt P25103)
- Construct: host or cells: COS-7
- Sequence (P25103 whole entry): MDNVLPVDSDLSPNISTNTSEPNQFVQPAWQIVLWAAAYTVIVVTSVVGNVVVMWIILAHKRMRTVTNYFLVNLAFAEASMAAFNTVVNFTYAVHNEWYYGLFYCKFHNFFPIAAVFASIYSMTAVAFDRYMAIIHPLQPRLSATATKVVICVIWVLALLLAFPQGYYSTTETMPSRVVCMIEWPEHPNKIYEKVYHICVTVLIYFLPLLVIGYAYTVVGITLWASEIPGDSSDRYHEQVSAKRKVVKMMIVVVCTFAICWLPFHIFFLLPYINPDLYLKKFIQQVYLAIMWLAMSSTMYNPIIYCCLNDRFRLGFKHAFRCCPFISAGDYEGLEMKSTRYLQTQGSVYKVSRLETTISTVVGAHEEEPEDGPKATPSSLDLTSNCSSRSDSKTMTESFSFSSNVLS
- ASSAY_SUMMARY: IP3 assay (inositol trisphosphate, 3H-myoinositol) in transiently transfected COS-7 cells
- Format: cell-based
- COND: COS-7 cells; figure legends: percent of 10^-6 M NKA
Square brackets hold non-standard residues; d marks the D form. Peptide text beside a SMILES is read from it. NMeL = CN[C@@H](CC(C)C)C(=O)O; Nle = CCCC[C@H](N)C(=O)O
METRIC_NAME: hNK1R, IP3 Efficacy (%)
Answer in %, number only, no unit symbol.

INSERT INTO measurements (compound, subject_of_test, unit_text, observed) VALUES
  ('CCCC[C@H](NC(=O)[C@H](CC(C)C)N(C)C(=O)CNC(=O)[C@@H](NC(=O)[C@H](Cc1ccc(O)cc1)NC(=O)[C@H](CCCCN)NC(=O)[C@@H](N)CC(=O)O)C(C)C)C(N)=O [compound 374, Asp;Lys;Tyr;Val;Gly;NmLeu;Nle;NH2] (H-DKYVG[NMeL][Nle]-NH2)', 'hNK1R (Homo sapiens, UniProt P25103)', '%', 50);

# ---- query compound ----
Using the record for "CCCC[C@H](NC(=O)[C@H](CC(C)C)N(C)C(=O)CNC(=O)[C@@H](NC(=O)[C@H](Cc1ccccc1)NC(=O)[C@H](CCCCNC(=O)COCCOCCNC(=O)COCCOCCNC(=O)CC[C@H](NC(=O)CCCCCCCCCCCCCCCCC(=O)O)C(=O)O)NC(=O)[C@@H](N)CC(=O)O)C(C)C)C(N)=O" , state its measured hNK1R, IP3 Efficacy.
64

---

- SUBJECT_OF_TEST: hNK1R (Homo sapiens)
- Construct: host or cells: COS-7
- ASSAY_SUMMARY: IP3 assay (inositol trisphosphate, 3H-myoinositol) in transiently transfected COS-7 cells
- Format: cell-based
- COND: COS-7 cells; figure legends: percent of 10^-6 M NKA
Numbered stars: 1 amine (or outer) side, 2 acyl side, 3 side chain; on linkers, the order of the positions; unused ones are H or OH. Square brackets hold non-standard residues; d marks the D form. Peptide text beside a SMILES is read from it. * marks the point of attachment. C18 diacid = O=C(O)CCCCCCCCCCCCCCCCC(=O)*; γGlu = O=C(O)[C@H](CCC(=O)[*:2])N[*:1]; C14 diacid = O=C(O)CCCCCCCCCCCCC(=O)*; NMeL = CN[C@@H](CC(C)C)C(=O)O; Nle = CCCC[C@H](N)C(=O)O; AEEA = NCCOCCOCC(=O)O
METRIC_NAME: hNK1R, IP3 Efficacy (%)
# output: bare number, implied unit %

INSERT INTO measurements (molecule, metric_name, unit_text, observed) VALUES
  ('CCCC[C@H](NC(=O)[C@H](CC(C)C)N(C)C(=O)CNC(=O)[C@H](CO)NC(=O)[C@H](Cc1ccc(O)cc1)NC(=O)[C@H](CCCCN)NC(=O)[C@H](CC(=O)O)NC(=O)COCCOCCNC(=O)COCCOCCNC(=O)CC[C@H](NC(=O)CCCCCCCCCCCCCCCCC(=O)O)C(=O)O)C(N)=O [compound 386, *Asp;Lys;Tyr;Ser;Gly;NmLeu;Nle;NH2] ({C18 diacid-γGlu-AEEA-AEEA}-DKYSG[NMeL][Nle]-NH2)', 'hNK1R, IP3 Efficacy', '%', 0);

Kindly review the next molecule as well.
Give the reported value of hNK1R, IP3 Efficacy for this record: CCCC[C@H](NC(=O)[C@H](CC(C)C)N(C)C(=O)CNC(=O)[C@@H](NC(=O)[C@H](Cc1ccc(O)cc1)NC(=O)[C@H](CCCCN)NC(=O)[C@H](CC(=O)O)NC(=O)COCCOCCNC(=O)COCCOCCNC(=O)CC[C@H](NC(=O)CCCCCCCCCCCCC(=O)O)C(=O)O)C(C)C)C(N)=O [compound 368, *Asp;Lys;Tyr;Val;Gly;NmLeu;Nle;NH2] ({C14 diacid-γGlu-AEEA-AEEA}-DKYVG[NMeL][Nle]-NH2)
0

---

- SUBJECT_OF_TEST: hNK2R (Homo sapiens)
- Construct: host or cells: COS-7
- Sequence (P21452 whole entry): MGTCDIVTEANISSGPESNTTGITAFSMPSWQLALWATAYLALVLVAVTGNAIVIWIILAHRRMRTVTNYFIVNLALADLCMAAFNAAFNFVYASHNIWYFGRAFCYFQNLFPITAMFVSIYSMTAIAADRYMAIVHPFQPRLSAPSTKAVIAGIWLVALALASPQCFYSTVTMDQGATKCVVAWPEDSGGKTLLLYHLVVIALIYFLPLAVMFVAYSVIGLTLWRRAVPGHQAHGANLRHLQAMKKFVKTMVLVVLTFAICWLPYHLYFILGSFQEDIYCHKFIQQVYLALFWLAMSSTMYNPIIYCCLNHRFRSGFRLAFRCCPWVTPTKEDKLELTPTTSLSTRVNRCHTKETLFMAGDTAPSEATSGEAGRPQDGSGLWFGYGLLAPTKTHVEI
- ASSAY_SUMMARY: IP3 assay (inositol trisphosphate, 3H-myoinositol) in transiently transfected COS-7 cells
- Format: cell-based
- COND: COS-7 cells, 0.2% ovalbumin buffer
Numbered stars: 1 amine (or outer) side, 2 acyl side, 3 side chain; on linkers, the order of the positions; unused ones are H or OH. Square brackets hold non-standard residues; d marks the D form. Peptide text beside a SMILES is read from it. * marks the point of attachment. C18 diacid = O=C(O)CCCCCCCCCCCCCCCCC(=O)*; γGlu = O=C(O)[C@H](CCC(=O)[*:2])N[*:1]; NMeL = CN[C@@H](CC(C)C)C(=O)O; Nle = CCCC[C@H](N)C(=O)O; AEEA = NCCOCCOCC(=O)O
Below, each entry is listed alongside its reported pEC50.
Schema: pEC50 number; meaning minus log10 of the concentration expressed in molar units.

INSERT INTO measurements (compound, metric_name, observed) VALUES
  ('CCCC[C@H](NC(=O)[C@H](CC(C)C)N(C)C(=O)CNC(=O)[C@@H](NC(=O)[C@H](Cc1ccccc1)NC(=O)[C@H](CCCCN)NC(=O)[C@H](CC(=O)O)NC(=O)COCCOCCNC(=O)COCCOCCNC(=O)CC[C@H](NC(=O)CCCCCCCCCCCCCCCCC(=O)O)C(=O)O)[C@@H](C)O)C(N)=O [compound 387, *Asp;Lys;Phe;Thr;Gly;NmLeu;Nle;NH2] ({C18 diacid-γGlu-AEEA-AEEA}-DKFTG[NMeL][Nle]-NH2)', 'pEC50', 8.48);

Here is the next item to consider.
For hNK2R (Homo sapiens), give pEC50 of the listed compound: CCCC[C@H](NC(=O)[C@H](CC(C)C)NC(=O)[C@@H](CO)NC(=O)[C@@H](NC(=O)[C@H](Cc1ccccc1)NC(=O)[C@H](CCCCN)NC(=O)[C@H](CC(=O)O)NC(=O)COCCOCCNC(=O)COCCOCCNC(=O)CC[C@H](NC(=O)CCCCCCCCCCCCCCCCC(=O)O)C(=O)O)C(C)C)C(N)=O [compound 385, *Asp;Lys;Phe;Val;dSer;Leu;Nle;NH2] ({C18 diacid-γGlu-AEEA-AEEA}-DKFV[dS]L[Nle]-NH2)
8.35

---

- SUBJECT_OF_TEST: UniProt P25103
- ASSAY_SUMMARY: IP3 assay (inositol trisphosphate, 3H-myoinositol) in transiently transfected COS-7 cells
- COND: COS-7 cells, 0.2% ovalbumin buffer
Numbered stars: 1 amine (or outer) side, 2 acyl side, 3 side chain; on linkers, the order of the positions; unused ones are H or OH. Square brackets hold non-standard residues; d marks the D form. Peptide text beside a SMILES is read from it. * marks the point of attachment. γGlu = O=C(O)[C@H](CCC(=O)[*:2])N[*:1]; Stearoyl = CCCCCCCCCCCCCCCCCC(=O)*; NMeL = CN[C@@H](CC(C)C)C(=O)O; hSer = N[C@@H](CCO)C(=O)O; AEEA = NCCOCCOCC(=O)O
METRIC_NAME: pEC50
Please report pEC50 as the negative decimal logarithm of the molar concentration, giving only the number.

Give recorded pEC50. CCCCCCCCCCCCCCCCCC(=O)N[C@@H](CCC(=O)NCCOCCOCC(=O)NCCOCCOCC(=O)N[C@@H](CC(=O)O)C(=O)N[C@@H](CCCCN)C(=O)N[C@@H](Cc1ccc(O)cc1)C(=O)N[C@H](C(=O)NCC(=O)N(C)[C@@H](CC(C)C)C(=O)N[C@@H](CCOC)C(N)=O)C(C)C)C(=O)O [compound 391, *Asp;Lys;Tyr;Val;Gly;NmLeu;Metox;NH2] ({Stearoyl-γGlu-AEEA-AEEA}-DKYVG[NMeL][hSer](Me)-NH2)
8.47

---

- ASSAY_SUMMARY: in vivo
- Design: species or system mice
- COND: mouse, 330 nmol/kg
Numbered stars: 1 amine (or outer) side, 2 acyl side, 3 side chain; on linkers, the order of the positions; unused ones are H or OH. Square brackets hold non-standard residues; d marks the D form. Peptide text beside a SMILES is read from it. * marks the point of attachment. C18 diacid = O=C(O)CCCCCCCCCCCCCCCCC(=O)*; γGlu = O=C(O)[C@H](CCC(=O)[*:2])N[*:1]; NMeL = CN[C@@H](CC(C)C)C(=O)O; Nle = CCCC[C@H](N)C(=O)O; AEEA = NCCOCCOCC(=O)O
METRIC_NAME: Cmax (µM)
Your answer is read as µM, so omit the unit and give the number.

Determine its reported Cmax: CCCC[C@H](NC(=O)[C@H](CC(C)C)N(C)C(=O)CNC(=O)[C@@H](NC(=O)[C@H](Cc1ccc(O)cc1)NC(=O)[C@H](CCCCN)NC(=O)[C@H](CC(=O)O)NC(=O)COCCOCCNC(=O)COCCOCCNC(=O)CC[C@H](NC(=O)CCCCCCCCCCCCCCCCC(=O)O)C(=O)O)C(C)C)C(N)=O [compound 305, *Asp;Lys;Tyr;Val;Gly;NmLeu;Nle;NH2] ({C18 diacid-γGlu-AEEA-AEEA}-DKYVG[NMeL][Nle]-NH2)
3.45
